# Target System: HLA-B*07:02
# Assay Explanation: IEDB peptide-MHC binding, purified MHC/competitive/fluorescence; bounds were set here for any values at or beyond the usual limits of such assays
# Run Parameters: source organism: Homo sapiens
pIC50: −log10 of the molar value.

Residue Sequence | pIC50
ILNRETLLDFV | ≤ 4.70

----------
# Target System: HLA-A*30:01
# Assay Explanation: IEDB peptide-MHC binding, purified MHC/competitive/radioactivity; filed as Kd, often an IC50 or EC50 that approximates it; bounds were set here for any values at or beyond the usual limits of such assays
# Run Parameters: source organism: Mammarenavirus brazilense

Residue Sequence | Unit Annotation | Kd
ELLGYCVSLF | nM | 1880

----------
# Target System: HLA-A*02:02
# Assay Explanation: IEDB peptide-MHC binding, purified MHC/competitive/radioactivity; filed as Kd, often an IC50 or EC50 that approximates it; bounds were set here for any values at or beyond the usual limits of such assays
# Run Parameters: source organism: Vaccinia virus WR

Residue Sequence | Kd
ILATLNTLIT | 6.95 nM
SMYGKAFNHA | 6.58 nM
VADLSARNKL | 1170 nM
YLRGHTESI | 0.206 nM
KLFKRERDA | 2390 nM
EQRRSTIFDI | ≥ 23000 nM
FLRPVLKAM | 1380 nM
ITFLRPVLKA | 3160 nM
FTFGDTALYV | 24.3 nM
YVIRHVDGKI | 621 nM
MAAAKTPVIV | 6010 nM
FQESFYEDI | 2280 nM
STYPGNTFV | 10.8 nM
YVLFVKKML | ≥ 31100 nM
TISGNIYSAL | 9.32 nM
IVQLPKRGV | 12000 nM
EVGTNFGTI | 5760 nM
STFNMWREI | 5820 nM
GLLDSIKMI | 80 nM
KLPTWLGAA | 499 nM
WIKNLETYT | 18300 nM
NVISKIYTLI | 0.985 nM
KIIAVFDSKL | 24.6 nM
FLLPLTSLVI | 11.5 nM
RAKRKPAMST | 977 nM
PAMSTYSDI | 18300 nM
GVMYAFTTPL | 34.2 nM
SIKMIYDLNA | 852 nM
YASLTTIGT | 409 nM
IVCIVAAVII | 1460 nM
GMYYPTNDI | 53.1 nM
PVVYHDDDNT | 9140 nM
GIAIFNNRNL | 5.12 nM
VMYAFTTPL | 0.573 nM
FVNFNSVKNL | 2020 nM
PVDLVKSSFV | 6610 nM
TIFDIVSKCI | 198 nM
NIGCAVNTPV | 126 nM
EISSNDNAKI | 11200 nM
WIKDIMTST | 193 nM
SLVKESMASL | 994 nM
SVDFVVNGHT | ≥ 70000 nM
TILATLNTLI | 39.5 nM
DVNSVQFSI | 10400 nM
ITDDSDDYEL | 687 nM
YTLIYRQLT | 6410 nM

----------
# Target System: HLA-B*39:01
# Assay Explanation: IEDB peptide-MHC binding, purified MHC/competitive/fluorescence; filed as Kd, often an IC50 or EC50 that approximates it; bounds were set here for any values at or beyond the usual limits of such assays
# Run Parameters: source organism: Variola virus

Residue Sequence | Kd / nM
SQIETGTPF | 14.6

----------
# Target System: HLA-B*08:01
# Assay Explanation: IEDB peptide-MHC binding, purified MHC/direct/fluorescence; filed as Kd, often an IC50 or EC50 that approximates it; bounds were set here for any values at or beyond the usual limits of such assays
# Run Parameters: source organism: Rio Mamore hantavirus
pKd: −log10 of the molar value.

Residue Sequence | Target System | pKd
KLKSVGKAY | HLA-B*08:01 | ≤ 4.70

----------
Each entry below carries its reported Kd.
# Target System: HLA-A*01:01
# Assay Explanation: IEDB peptide-MHC binding, purified MHC/direct/fluorescence; filed as Kd, often an IC50 or EC50 that approximates it; bounds were set here for any values at or beyond the usual limits of such assays
# Run Parameters: source organism: Giardia lamblia ATCC 50803
Measure Name: Kd (µM)

Residue Sequence | Inequality Sign | Experimental Value
PTKCGENLY | = | 7.76
KLLQICMWF | ≥ | 20
EFFDTEPQL | ≥ | 20
KTPWDRFCK | ≥ | 20
RENQVAVVR | ≥ | 20
KVDWNQFTY | = | 0.002
ATSGYRIAY | = | 0.0687

----------
# Target System: HLA-A*69:01
# Assay Explanation: IEDB peptide-MHC binding, purified MHC/direct/fluorescence; filed as Kd, often an IC50 or EC50 that approximates it; bounds were set here for any values at or beyond the usual limits of such assays
# Run Parameters: source organism: Escherichia coli O157:H7
pKd: −log10 of the molar value.
Measure Name: pKd

Residue Sequence | Experimental Value
VSRDFDDVY | ≤ 4.70

----------
# Target System: HLA-A*24:02
# Assay Explanation: IEDB peptide-MHC binding, purified MHC/competitive/radioactivity; filed as Kd, often an IC50 or EC50 that approximates it; bounds were set here for any values at or beyond the usual limits of such assays
# Run Parameters: source organism: Mammarenavirus juninense

Residue Sequence | Unit Annotation | Kd
LFQFFVFLV | µM | 18.8

----------
# Target System: HLA-B*27:03
# Assay Explanation: IEDB peptide-MHC binding, purified MHC/competitive/fluorescence; filed as Kd, often an IC50 or EC50 that approximates it; bounds were set here for any values at or beyond the usual limits of such assays
# Run Parameters: source organism: Homo sapiens
pKd: −log10 of the molar value.

Residue Sequence | Target System | pKd
NTAINFFLY | HLA-B*27:03 | ≤ 4.70

----------
# Target System: HLA-B*57:01
# Assay Explanation: IEDB peptide-MHC binding, purified MHC/competitive/fluorescence; filed as Kd, often an IC50 or EC50 that approximates it; bounds were set here for any values at or beyond the usual limits of such assays
# Run Parameters: source organism: Burkholderia pseudomallei K96243
pKd: −log10 of the molar value.

Residue Sequence | pKd
LMRRFRFTV | ≤ 4.70

----------
# Target System: HLA-B*83:01
# Assay Explanation: IEDB peptide-MHC binding, purified MHC/competitive/fluorescence; filed as Kd, often an IC50 or EC50 that approximates it; bounds were set here for any values at or beyond the usual limits of such assays
# Run Parameters: source organism: Homo sapiens
pKd: −log10 of the molar value.
Measure Name: pKd

Residue Sequence | Target System | Measure Name | Experimental Value
KGPPAALTL | HLA-B*83:01 | pKd | 5.28

----------
# Target System: HLA-B*40:02
# Assay Explanation: IEDB peptide-MHC binding, purified MHC/competitive/radioactivity; filed as Kd, often an IC50 or EC50 that approximates it; bounds were set here for any values at or beyond the usual limits of such assays
# Run Parameters: source organism: SARS coronavirus Tor2
pKd: −log10 of the molar value.
Measure Name: pKd

Residue Sequence | Inequality Sign | Experimental Value
QELYSPLFL | = | 6.81
REVLSDREL | = | 6.99
GETPIAYRNV | = | 6.55
REVSTAAVT | ≤ | 4.68
FEIKSAKKF | = | 6.21
DEFIQRYKL | = | 5.60
EEAALCTFL | = | 6.08
VEAVMYMGTL | = | 7.47
EEGNLLDSYF | ≤ | 4.15
SELAKGVAL | = | 7.85
TENLVIEGPT | = | 6.14

----------
# Target System: HLA-A*01:01
# Assay Explanation: IEDB peptide-MHC binding, purified MHC/competitive/fluorescence; filed as Kd, often an IC50 or EC50 that approximates it; bounds were set here for any values at or beyond the usual limits of such assays
# Run Parameters: source organism: Escherichia coli O139:H28 str. E24377A

Residue Sequence | Kd
ITAALAWSL | ≥ 20 µM

----------
# Target System: HLA-B*35:01
# Assay Explanation: IEDB peptide-MHC binding, purified MHC/direct/fluorescence; filed as Kd, often an IC50 or EC50 that approximates it; bounds were set here for any values at or beyond the usual limits of such assays
# Run Parameters: source organism: Giardia lamblia ATCC 50803
Measure Name: Kd

Residue Sequence | Experimental Value
PTKCGENLY | 5.2 µM

----------
# Target System: HLA-B*18:01
# Assay Explanation: IEDB peptide-MHC binding, purified MHC/competitive/fluorescence; filed as Kd, often an IC50 or EC50 that approximates it; bounds were set here for any values at or beyond the usual limits of such assays
# Run Parameters: source organism: Vibrio vulnificus YJ016
pKd: −log10 of the molar value.
Measure Name: pKd

Residue Sequence | Measure Name | Experimental Value
LTDEQKNAV | pKd | ≤ 4.70

FYI, the data here is from the Immune Epitope Database (IEDB).
